system: bone marrow derived mast cells (BMMC); test: BMMC high cell density ionomycin activation: hexosaminidase; assay type: cell-based, mouse; conditions: second part of TABLE 1, read-out: BMMC Ionomycin hexos. IC50
METRIC_NAME: IC50

STRUCTURE_NOTATION	IC50
Fc1cnc(Nc2ccc3c(c2)OC(F)(F)C(F)(F)O3)nc1Nc1ccc2c(c1)OC(F)(F)C(F)(F)O2	> 10 µM

With those in mind, consider the next compound.
Q: Name the reported IC50 value associated with the compound Fc1cnc(Nc2ccc(N3CCOCC3)cc2)nc1Nc1ccc(N2CCOCC2)cc1
Result: > 10 µM

* * *

test: Mouse model of passive cutaneous anaphylaxis (PCA); type: in vivo; details: mouse, plasma; PO, 1.5% Avicel/water, 200 mg/kg, pretreatment 240 min; read-out: Plasma level (duration of action)
METRIC_NAME: concentration at 240 min
# output: numeric value plus its unit

Q: Name the reported concentration at 240 min value associated with the compound Nc1cccc(Nc2ncc(F)c(Nc3cccc(N)c3)n2)c1
Result: 8000 ng/mL

* * *

experiment: Mouse model of passive cutaneous anaphylaxis (PCA); type: in vivo; conditions: mouse, plasma; PO, 1.5% Avicel/water, 200 mg/kg, pretreatment 30 min; read-out: Plasma level (duration of action)
METRIC_NAME: concentration at 30 min (µg/mL)
Numbers only, in µg/mL.

Q: Name the reported concentration at 30 min value associated with the compound Nc1cccc(Nc2ncc(F)c(Nc3cccc(N)c3)n2)c1
Result: 88

* * *

assay: in vivo; settings: mouse, po
METRIC_NAME: NOAEL at 14 days (mg/kg)
Give bare numbers, in mg/kg.

Q: Name the reported NOAEL at 14 days value associated with the compound Nc1cccc(Nc2ncc(F)c(Nc3cccc(N)c3)n2)c1
Result: 100

* * *

test system: cultured human mast cells (CHMC); assay: CHMC low cell density ionomycin activation: tryptase assay; type: cell-based; settings: Acetic Acid Salt
pIC50: −log10 of the molar value. Structures can show the parent of a compound that is named as a salt.
METRIC_NAME: pIC50

Q: Name the reported pIC50 value associated with the molecule CNC(=O)COc1cccc(Nc2ncc(F)c(Nc3ccc4c(c3)OCCO4)n2)c1 [R926826, Acetic Acid Salt]
Result: < 5.00

* * *

assay: 14-day repeat-dose intranasal toxicity study in Cynomolgus monkeys; format: in vivo; details: cynomolgus monkey, in vivo, inhaled or intranasal, intranasal, Cynomolgus monkeys, read-out: NOAEL (no observed adverse effect level)
METRIC_NAME: NOAEL at 14 days (mg/kg/day)
One number for each entry, in mg/kg/day.

Q: Name the reported NOAEL at 14 days value associated with the compound Oc1cccc(Nc2ncc(F)c(Nc3cccc(O)c3)n2)c1 [R921218]
Result: 6.3

* * *

assay: 14-day repeat-dose intranasal toxicity study in New Zealand White rabbits; format: in vivo; conditions: rabbit, in vivo, inhaled or intranasal, intranasal, New Zealand White rabbits, read-out: NOAEL (no observed adverse effect level)
METRIC_NAME: NOAEL at 14 days (mg/kg/day)
Answers are plain numbers, in mg/kg/day.

Q: Name the reported NOAEL at 14 days value associated with the compound Oc1cccc(Nc2ncc(F)c(Nc3cccc(O)c3)n2)c1
Result: 5

* * *

experiment: Mouse model of passive cutaneous anaphylaxis (PCA); type: in vivo; conditions: mouse, plasma; PO, 1.5% Avicel/water, 200 mg/kg, pretreatment 120 min; read-out: Plasma level (duration of action)
METRIC_NAME: concentration at 120 min (µg/mL)
Give bare numbers, in µg/mL.

Q: Name the reported concentration at 120 min value associated with the compound Nc1cccc(Nc2ncc(F)c(Nc3cccc(N)c3)n2)c1
Result: 61

Reference for the values: patent US9499493B2
